target: RAF kinases (Homo sapiens (Human)); conditions: read-out: RAF1 Kd, class symbols
Sequence (P04049 whole entry): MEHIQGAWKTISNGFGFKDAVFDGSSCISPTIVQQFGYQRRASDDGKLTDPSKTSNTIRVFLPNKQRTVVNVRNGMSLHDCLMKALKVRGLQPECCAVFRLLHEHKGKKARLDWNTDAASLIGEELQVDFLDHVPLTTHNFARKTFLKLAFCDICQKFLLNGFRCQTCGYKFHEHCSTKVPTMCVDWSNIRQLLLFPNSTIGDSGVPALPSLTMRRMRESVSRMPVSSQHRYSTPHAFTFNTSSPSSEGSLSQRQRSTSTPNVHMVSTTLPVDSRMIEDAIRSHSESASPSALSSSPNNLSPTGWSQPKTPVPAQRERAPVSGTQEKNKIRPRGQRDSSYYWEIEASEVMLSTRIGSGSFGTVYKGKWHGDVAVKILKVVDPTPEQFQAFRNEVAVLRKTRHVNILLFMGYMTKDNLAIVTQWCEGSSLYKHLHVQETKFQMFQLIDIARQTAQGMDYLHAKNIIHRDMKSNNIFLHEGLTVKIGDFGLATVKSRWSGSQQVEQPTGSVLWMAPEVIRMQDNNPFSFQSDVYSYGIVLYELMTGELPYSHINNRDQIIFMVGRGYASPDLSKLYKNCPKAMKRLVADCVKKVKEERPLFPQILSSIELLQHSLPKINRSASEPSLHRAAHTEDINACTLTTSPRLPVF
pKd: −log10 of the molar value. Structures can show the parent of a compound that is named as a salt.
assayReadout: pKd

// COc1cc2ncnc(Oc3cccc(NC(=O)Nc4cccc(C(C)(C)C)c4)c3)c2cc1OC [Ex 118] : pKd value = > 6.60

// COc1cc2ncnc(Sc3cccc(NC(=O)Nc4cc(C(C)(C)C)on4)c3)c2cc1OCCN1CCS(=O)(=O)CC1 [Ex 71] : pKd value = > 6.60

// COc1cc2ncnc(Oc3cccc(NC(=O)Nc4cc(C(C)C)on4)c3)c2cc1OC [Ex 133] : pKd value = > 6.60

// COc1cc2ncnc(Oc3cccc(NC(=O)Nc4cc(C(C)(C)C)on4)c3)c2cc1O[C@H]1CCN(CC(F)F)C1 [Ex 110] : pKd value = > 6.60

// COc1cc2ncnc(Sc3cccc(NC(=O)Nc4cc(C(C)(C)C)on4)c3)c2cc1OCCCS(C)(=O)=O [Ex 64] : pKd value = > 6.60

// COc1cc2ncnc(Oc3cccc(NC(=O)Nc4cc(C(F)(F)F)nn4C)c3)c2cc1OC [Ex 164] : pKd value = > 6.60

// COc1cc2ncnc(Sc3cccc(NC(=O)Nc4cc(C5CCCC5)on4)c3)c2cc1OC [Ex 201] : pKd value = > 6.60

// CC(C)(C)c1cc(NC(=O)Nc2cccc(Sc3ncnc4cc5c(cc34)OCCO5)c2)no1 [Ex 54, hydrochloride] : pKd value = < 6.00

// COc1cc2ncnc(Oc3cccc(NC(=O)Nc4cc(C5CC5)no4)c3)c2cc1OC [Ex 124] : pKd value = > 6.60

// COc1cc2nc(Cl)nc(Sc3cccc(NC(=O)Nc4cc(C(C)(C)C)on4)c3)c2cc1OC [Ex 89] : pKd value = < 6.00

// COCC(C)(C)c1cc(NC(=O)Nc2cccc(Oc3ncnc4cc(OC)c(OC)cc34)c2)on1 [Ex 128] : pKd value = < 6.00

// COc1cc2ncnc(Sc3cccc(NC(=O)Nc4cc(C(C)(C)F)no4)c3)c2cc1OC [Ex 187] : pKd value = > 6.60

// COc1cc2ncnc(Oc3cccc(NC(=O)Nc4cc(C5CCCC5)on4)c3)c2cc1OC [Ex 135] : pKd value = > 6.60

// COc1cc2ncnc(Oc3cccc(NC(=O)Nc4cc(C(C)(C)C)on4)c3)c2cc1O[C@H]1CCN(C)C1 [Ex 109] : pKd value = > 6.60

// COc1cc2ncnc(Sc3cccc(NC(=O)Nc4cccc(C(F)(F)F)c4)c3)c2cc1OC [Ex 185] : pKd value = > 6.60

// COc1cc2ncnc(Sc3cccc(NC(=O)Nc4cc(C(F)(F)F)nn4C)c3)c2cc1OC [Ex 193] : pKd value = > 6.60

// COc1cc2c(Oc3cccc(NC(=O)Nc4cc(C(C)(C)C)on4)c3)ncnc2cc1O[C@H]1CCN(CC(F)(F)F)C1 [Ex 104] : pKd value = < 6.00

// CCOC(=O)Cn1nc(C(C)(C)C)cc1NC(=O)Nc1cccc(Oc2ncnc3cc(OC)c(OC)cc23)c1 [Ex 166] : pKd value = < 6.00

// CCOC(=O)Cn1nc(C(C)(C)C)cc1NC(=O)Nc1cccc(Sc2ncnc3cc(OC)c(OC)cc23)c1 [Ex 195] : pKd value = < 6.00

// COc1cc2ncnc(Oc3cccc(NC(=O)Nc4cc(C(C)(C)C)on4)c3)c2cc1OCCCN1CCOCC1 [Ex 22] : pKd value = > 6.60

// COc1cc2ncnc(Oc3cc(NC(=O)Nc4cc(C(C)(C)C)on4)ccc3Cl)c2cc1OC [Ex 10] : pKd value = < 6.00

// COc1cc2ncnc(Oc3cccc(NC(=O)Nc4cc(C(C)(C)C)on4)c3)c2cc1OCCN1CCCCC1 [Ex 16] : pKd value = < 6.00

// COc1cc2ncnc(Sc3cccc(NC(=O)Nc4cc(C(C)(C)C)on4)c3)c2cc1OCCN1CCOCC1 [Ex 70] : pKd value = > 6.60

// COc1cc2ncnc(Sc3cccc(NC(=O)Nc4cc(C5(C(F)(F)F)CCC5)no4)c3)c2cc1OC [Ex 156] : pKd value = < 6.00

// CC(C)(C)c1cc(NC(=O)Nc2cccc(Sc3ncnc4cc(F)c(F)cc34)c2)no1 [Ex 47] : pKd value = < 6.00

// COc1cc2ncnc(Oc3cccc(NC(=O)Nc4cc(C5(C)CC5)on4)c3)c2cc1OC [Ex 127] : pKd value = > 6.60

// COc1cc2ncnc(Oc3cccc(NC(=O)Nc4ccc(OC(F)(F)F)cc4)c3)c2cc1OC [Ex 177] : pKd value = > 6.60

// COc1ccc2c(Sc3cccc(NC(=O)Nc4cc(C(C)(C)C)on4)c3)ncnc2c1 [Ex 48] : pKd value = < 6.00

// COc1cc2ncnc(Sc3cccc(NC(=O)Nc4cc(C(C)(C)C)on4)c3)c2cc1OCCCN1CCN(CCO)CC1 [Ex 61] : pKd value = > 6.60

// COc1cc2c(Oc3cccc(NC(=O)Nc4cc(C(C)(C)C)on4)c3)ncnc2cc1OC[C@H](O)CN1CCN(C)CC1 [Ex 100] : pKd value = > 6.60

// COc1cc2ncnc(Sc3cccc(NC(=O)Nc4cc(C(C)(C)C)on4)c3)c2cc1OCCCN1CCS(=O)(=O)CC1 [Ex 62] : pKd value = > 6.60

// CCOc1cc2ncnc(Oc3cccc(NC(=O)Nc4cc(C(C)(C)C)on4)c3)c2cc1OCC [Ex 13, hydrochloride] : pKd value = < 6.00

Every entry's value here was drawn from patent US9730937B2.
